Test: qHTS assay to identify small molecule agonists of the endoplasmic reticulum stress response signaling pathway - cell viability counter screen (AID 1159517); note: nearly all actives have a fitted effect of over 50% in size
Conditions: ESRE-bla HeLa viability, CellTiter-Glo luminescence, 5 h; series mostly up to 61 µM
Results filed as inconclusive are left out. Active and inactive are the calls of the source. Calls come from the whole dose curve.
Your reply should match one of these outcome classes. active, inactive

// below: answered compounds
[[record]]
compound = "Oc1ccc(C2(c3ccc(O)cc3)CCCCC2)cc1"
answer_label = "active"

[[record]]
compound = "Oc1c(Cl)c(Cl)cc(Cl)c1Cl"
answer_label = "inactive"

[[record]]
compound = "c1ccc2cc3c(cc2c1)-c1cccc2cccc-3c12"
answer_label = "inactive"

[[record]]
compound = "O=[N+]([O-])c1ccc2ccc3cccc4ccc1c2c34"
answer_label = "inactive"

[[record]]
compound = "Cc1cc(C(C)(C)c2cc(C)c(O)c(C)c2)cc(C)c1O"
answer_label = "active"


Which outcome was assigned to "CC(C)(O)c1cnn2c(-c3ccc(F)c(-c4c(F)cccc4C#N)c3)cnc2n1" in this test?
inactive

Thanks! And "O=C(CCl)Nc1ccccc1" ?
inactive

Thanks! And "CCCN(CCC)c1c([N+](=O)[O-])cc(S(N)(=O)=O)cc1[N+](=O)[O-]" ?
active

Thanks! And CC(C)[C@H](C(=O)OC(C#N)c1cccc(Oc2ccccc2)c1)c1ccc(OC(F)F)cc1 (stereo partly specified) ?
inactive

Thanks! And "C[C@]12CC[C@@H]3c4ccc(OC(=O)N(CCCl)CCCl)cc4CC[C@H]3[C@@H]1CC[C@@H]2O" ?
inactive

Thanks! And "[CH3][Hg][Cl]" ?
active

FYI, the data here is from PubChem BioAssay (Tox21).
